Target: Replicative DNA helicase DnaB (Mycobacterium tuberculosis)
Sequence (P9WMR3 whole entry): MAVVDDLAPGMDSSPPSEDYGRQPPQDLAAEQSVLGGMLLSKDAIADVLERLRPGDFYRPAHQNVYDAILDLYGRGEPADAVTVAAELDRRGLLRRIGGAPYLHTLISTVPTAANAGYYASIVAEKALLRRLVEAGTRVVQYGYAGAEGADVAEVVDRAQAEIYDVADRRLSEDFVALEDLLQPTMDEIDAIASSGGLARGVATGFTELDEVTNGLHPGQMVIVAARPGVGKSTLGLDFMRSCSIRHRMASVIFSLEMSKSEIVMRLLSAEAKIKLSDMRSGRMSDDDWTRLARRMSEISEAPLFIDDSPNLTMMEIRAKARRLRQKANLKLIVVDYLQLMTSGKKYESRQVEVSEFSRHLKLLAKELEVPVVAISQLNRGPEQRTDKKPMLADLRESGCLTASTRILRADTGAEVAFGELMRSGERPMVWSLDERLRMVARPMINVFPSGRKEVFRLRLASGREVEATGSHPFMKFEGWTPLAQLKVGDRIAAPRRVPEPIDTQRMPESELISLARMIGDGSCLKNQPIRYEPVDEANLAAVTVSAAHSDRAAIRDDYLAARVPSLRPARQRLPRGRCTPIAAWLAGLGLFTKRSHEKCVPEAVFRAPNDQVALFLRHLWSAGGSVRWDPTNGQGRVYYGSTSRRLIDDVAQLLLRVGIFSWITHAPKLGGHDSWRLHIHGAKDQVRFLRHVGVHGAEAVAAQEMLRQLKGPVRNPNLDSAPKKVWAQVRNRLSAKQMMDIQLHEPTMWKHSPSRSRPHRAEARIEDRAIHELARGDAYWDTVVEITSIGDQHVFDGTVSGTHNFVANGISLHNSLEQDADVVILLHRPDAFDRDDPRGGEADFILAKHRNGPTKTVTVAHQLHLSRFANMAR
Assay: DnaB intein splicing inhibitors, dose response, biochemical, cell-free fluorescence (AID 449749)
Type: functional
Activity calls are given as the source filed them. No stated cut-off is given here; in the data, actives have a measured AC50 and inactives only a lower limit.
Your response should consist of one outcome taken from active, inactive

* O=c1cc(-c2ccccc2)[nH]n1-c1ccc([N+](=O)[O-])cc1 | active

Qu. Which result was noted for this compound in the test: C/C(CC(=O)Nc1ccccc1[N+](=O)[O-])=N\NC(=O)COc1ccccc1C
Ans. active
